Protocol Summary: protease stability score; higher = more stable; yeast display proteolysis, trypsin and chymotrypsin
Record condition met whenever protease stability score is at 0.1 or higher; record condition not met when lower.

DEEKENRDIQTLMKNMVTGNEQEVMKNADKNVNLVVGDKTYHGREKIREFVRQLRERADHQEIKSVHATNGRAQADMVVNVNGKDIRFTVTMEASNGKAKHIQFDPNFFRKIQS: condition not met

[Q] Evaluate DHEVAKTMMEEWQKALENGDDKKLKELYDPDGEWEADDEQDQGTEVIEKLMEKVKKQGLKFQVRKAKVEGDKFTVVYDLHVGNKTATFEVEVHVEGGRIKKVKAKADEEAKKLITEG : protease stability score at minimum 0.1?
[A] condition met

[Q] Evaluate DERNKKVLRQFMHAQMRGNPEKAKKLADPNAKFQVGDKTVHGMDEWVRQLDRKKKQIRFEVRVDSVRVHGDNVTMHVEYRATYNGKPYSDKVDYSARLHNGKITKLSAEMDPEFQRELDT : protease stability score at minimum 0.1?
[A] condition met

---

Protocol Summary: protease stability score; higher = more stable; yeast display proteolysis, trypsin and chymotrypsin
Record Met whenever protease stability score is at 0.2 or higher; record Not met when lower.

[Q] Evaluate DEEKAQRLMKTLMDYIKNGNADKAQQMLKEGGKVKFGDEEVEGPEEMKKYVKKFKDKGIETHYKEEKFEGNTATVHTEAKLGNAKVEFEAHYEAKGDKVVRAEVKYDEDQYEKFKKS : protease stability score at minimum 0.2?
[A] Not met

[Q] Evaluate DEQKIKELLYKAAEAYINGNDELVRKLLKDDGKLEAGDYEYRGVDQVVKVAQDFKKYGVELEIKNYKYDGDRLDVEVELHLGGTTWKFTVTVQADGGKVDKVQFHFSEEARKRIQDG : protease stability score at minimum 0.2?
[A] Met

[Q] Evaluate DKTAAHVVHQFLRNVDTGDPKKASDNADPNVTINVGDKEIRGRENLQKEIDKQKKDWRQTVRVTSFKDHNGKVHVDARYTADVNGKPIDDTFQFEMQAHNGKLKYVNVQLDEDKKKEQDS : protease stability score at minimum 0.2?
[A] Not met

---

Protocol Summary: protease stability score; higher = more stable; yeast display proteolysis, trypsin and chymotrypsin;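 further: log10 excess protease needed over predicted unfolded state with 0 meaning unfolded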
Record y whenever protease stability score is at 0.2 or higher; record n when lower.

[Q] Evaluate DERAVKRMEKFIKVLINGNPDDLKEYLDENVKVDVGDKRIHGRETFMNEAEKDKRQMSVSLKEVRVDAHNGRLQVNARVHINHNGTPRDKEYVMQAILHNGRIKSMRVQSTG : protease stability score at minimum 0.2?
[A] y

[Q] Evaluate DEDLMTQIVKRYIDAWREGDRDELMKLADENVHIQVGDQTYHGQEQWRELVKKHKDNADHMDVKSWNIRGEKVHVHYWARFNGVEIEDTVEIQYENGRIIDIQFDPDQQRKEDK : protease stability score at minimum 0.2?
[A] y

---

Could you please report measured protease stability score for the items listed next?
Protocol Summary: protease stability score; higher = more stable; yeast display proteolysis, trypsin and chymotrypsin;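 further: log10 excess protease needed over predicted unfolded state with 0 meaning unfolded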

For each listed entry, give its protease stability score.
1. DDKHIQTQAERIAKALQTGDPDKFKNEMRKDVQVDVGDKRLHGREEVAKWMEDKHKRADRITYDSVEASGDKITMTVVIQINGRKKHFQFEATQSNGKIVHARERDQ
2. EEHVLTRFNSNMSNNNFNHIRDMADENAKMRVGDQEYHGRDNIHRLLEELKTQADHIQVRDYNHRGEHVHVDVEMVINGQKLVARWHAEIKNGRIKEMVLQFTNEEQEKTVRKALR

[A]
1. -0.393
2. 0.302

For each listed entry, give its protease stability score.
1. DEDEERKAVERFLDALKTGDPDKFKKLVDPNVNIQVGDKEINGREQYAHEVHRRKKRADHLEVEHVNVKNGKVQIFVVINVDGRSHHYVLDAHIHNGRIVEMKVEHQ
2. DEKRMVELMRKIFKTIINGNEDEVKKILPPHGEYHYIDKKFEGKEVAEYIIKLVKKMGAEAKVKEQEVKGDTAKATFQYRKGDKTVQTKAEVKYEGDKMKKARVENTDEVRKVVHQG
3. DEDLSRNFHQFIEALKQNDTDRMKELIDPNARMRYGDKQLHGRENILNYWKKLNDQARVDLDLKSVRNDENHIRYNYKMRVHVNGRPVEDTATAEIRATNGRIVDIYIDFDPEKLRQIES
4. DDDKAKEIARQVWHAIREGDEDEAKRQFDKNARVVYGDKTVHGKEQAARMVHEWRRRIDHLEINDMKVDGNSVHVVFRYVHNGRERTQVVRIELDNGRVKNAEFTDQ
5. DDTVRELVKQLRTALESNDEKKVKRLVDPNAQFQYGDKTLHGMTHAASRRVKEHQEIRLSIKKFHVNVSGDHVRVEFRYEVNVNGRPRKASATFTARFENGKMKEQRLRFDEDEYRKLKK
6. DQEDLKHLANVLRTGDWDRLRDLFDENARVKIGDKEVHGKEDAKKLAEQLKRSIDHMKISTWSITNGVLEMHFRVNVNGKTYEVQMELHAHNGRIKSMELHYRNREVKHVIKEMLD
7. DEDKVAHDMMKEIQSIFERGDRDTWRRMFDPNAEMHVGDKRIHGREHFSRWAQRSVERVDHHEMHVRSVSVDNGTITVSAVEVENVNGHEDKRRFVVRANLEGDKVQWKRRSEQ
8. DSHEKAEKWARKLNQVWEHNDPDRAMEMVDPNVRVDIGDRRYHGREDWRKMVEHLNKRVDHMEFKFDQVDAHNGKIRITVTFTYTIDGQERTERLVFHVDNVNGRLVAQKAHDG

[A]
1. 0.08
2. -0.024
3. 2.34
4. 1.46
5. 0.063
6. 1.08
7. 0.096
8. 0.343

---

Could you please report measured protease stability score for the items listed next?
Protocol Summary: protease stability score; higher = more stable; yeast display proteolysis, trypsin and chymotrypsin;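 further: log10 excess protease needed over predicted unfolded state with 0 meaning unfolded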
One number for each entry.

Recorded results for 3 sequences are shown here.
DKEKEAKKAIDKMITAIQHNDEDRAREMADPNVRIKYGDKQYHGRETMEDWIRTLRNSYDHLDIKLTDMKTDGDKIHIIIQYEADHNGQRTRDRVDLTMRRDNGRVKLVSAKEQ: 0.232
DEEEAKKVLDKAVKAVKNGDLKHLKDLGKDGVEYRIADKKAHGPEQIEKVMEYLHRKGVRIEFKRQEVKGNTVTTDIEYQQGDETYTVQAHATVKGGRIDKVEIDVSERAKKVMDHG: 0.149
DDREEARKMLHKADRALNDGDPRSAQNLVDENAQVVYGDKRYSGDQQAADVMVSLRHQYDHLSLEIDRLRVDGNRVHVDATLTAQRNGSTLHSKLNFVFSKKNGRLRVSHLVIG: 0.183

For each listed entry, give its protease stability score.
1. DKKANSMAHDLIRNRNSNNPERLKEMMDPNVEIVIGDKTVNGTHEYERQQRQRDRQIQIDVKSVTFKDRPNHAQVRFDAVFHHNGQPDRRVQEVIIRQRNGKVKHIHVQDTE
2. DSDKIDNVVKTIMHDLRKGNPERVMKNADKDVKIVVGDKRYHGRETLETLMKEMVDQADHIQFHSVNIRGEKVVVVAVLQHNGVNVDVQFNMEIDNGRATKVELKVRNPEQQKKFDS
3. DHEKNKQHVDQFNEILKNGNPDEANKLADKDVEIEVGDKRYHGHEDFRKYQEEIAEQADHVKVTEVEVDGNKANVDVVLRINGKNLRRTFLLQIHNGRLKRLSFDPDQWDKARG
4. DEERAKQLMEKAFKMIRNGNEEVVRKMLKPNGRYEYIDKKFEGEEAAKFVVQLVQKVGAEDKVKRKEVKGDTAKMDFDYHKGDKTVRTTAEVIYKGDKMEQARVELTDEVKKIVHQG

[A]
1: -0.365; 2: 0.583; 3: 0.91; 4: 0.046

---

Could you please report measured protease stability score for the items listed next?
Protocol Summary: protease stability score; higher = more stable; yeast display proteolysis, trypsin and chymotrypsin;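 further: log10 excess protease needed over predicted unfolded state with 0 meaning unfolded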
One number for each entry.

DEEELKTAETNIRTGNFDDLSKQADENVNVQVGEKTIQGREEFNKVAHHLQKDVDHFEVKHVHNQGDQVNAEAVFVVDGKDLSFNMQMKMHNGRVKSVVFRATDETILRTYKEMLR: -0.152

For each listed entry, give its protease stability score.
1. DDKEARKFAKDYVDAMKTGDEKRIEEMVDPNVSFQIGDQTYHGREQLKQALRSRRHHADHVQVDHVEAQGDKIDIDVQFNINGRDDKVKIKIRVHNGRIKEVVIEKK
2. DDKKQQNMAKHFADAIRRGDPKTFSDLADPNVTAQYGDKSIHGKDEMREFWKQYHDRVDSVDVEKFSVRGDKIDIKMRAVVDGKDRVLDLDIQLHNGRATHIKVNPDQVREMDK
3. DERKEAKEFADRIVKIIQTNNQDELEKNADPDVRVDVGDKQVHGREQLQDELKKLRTRADHVEVKIQDFKVHNGSVTVQMTIVYVVNGQKHKDERVYHAEIHNGRVKLKSARQK
4. DEDINKMVKEFIRNMQNGNHSRLAQLADPNARVQIGDKTLHGREDLERHVRELTERSRVEYKSVDVKVHNGRAHLHLDVVVHHNGRPQRSRVQAVFTAQGDKIKDIRVESNQ
5. DDREVVDRALKELRSILHEGDEEQMHRNFPPEASVKYGDTEYTGMESAAHLIIELRKRVDHMEQRVTTVNVRNGTVDVDMSADVRHNGREDSIKVKLILRISNGRAQLEQVINP
6. DEHLFKRLVDIIKHGNFEELARQADENARVVVGDRTVKGRNEVEELMQRLRQKIDHVQIDHWSRHGDTVTISFVANVNGRRLEFTLMAAFDNGRIHEVVFHSTNEEVTKIMKEILS
7. DEEEADSWMKILQTNDEKKARDNIDPNATAHVGEQRFDGAQDFVARFMQVLKSADHVRIHSVDHEGDKVRMDITFDINGQRARVVLNIQIKNGRVVHVSVEVRNEEVKKVFDKALK
8. DEREKEHVEEFLRNWEEGNQDNLMRLADPNVRLQIGDHEIHGREQLAKHVDDERKQMRVSMQIKSVDAHNGRIHIQAERESQHDGNPTKESLVITFVLRNGRIQEVSYKRQQ

[A]
0.99
1.38
0.767
0.116
1.18
1.93
0.16
0.959

[Q] Using the record for DREKEAHELIEHFVRMLETGDEEKFKEMMDKDAKLHVGDKDVHGRDDVDRHLAQEYKQYDHVHFRVKDVKVRGDTIEAQVEVQFDHNGKTDTRTYRFVMRVDNGDVKFQSVSNS , report its protease stability score.
[A] 1.45
